Data origin, for the record: PubChem BioAssay (NCI)

# experimentDescription: NCI Yeast Anticancer Drug Screen. Data for the rad50 strain (AID 155);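 note: 0% = growth of vehicle-only cultures of the same strain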
# cond: S. cerevisiae rad50 strain growth inhibition; at 50.0 µM; hits give high values
The panel holds about 79,000 compounds, 15% with a hit somewhere; the sample as a whole holds those more often.
Give growth inhibition for every item shown.
One number for each entry, in %.

Request: Quick check: growth inhibition of N#CC(c1ccccc1)N(CCCCCCN(C(=O)c1ccccc1)C(C#N)c1ccccc1)C(=O)c1ccccc1 (stereo not given) ?
Response: 17.1

Request: Quick check: growth inhibition of CN(C)S(=O)(=O)Oc1ccccc1N ?
Response: 5.9

Request: Quick check: growth inhibition of C=CC(C/C(C)=N/Nc1ccc([N+](=O)[O-])cc1[N+](=O)[O-])c1ccccc1 (stereo not given) ?
Response: -17.7

Request: Quick check: growth inhibition of CN(C)Cc1c(C(O)(c2ccccc2)c2ccccc2)cc2ccccc2c1Cl ?
Response: -12.8

Request: Quick check: growth inhibition of CCOC(=O)CCC(C)(C#N)c1ccccc1 (stereo not given) ?
Response: -2.35

State the recorded growth inhibition for every item in the following list.
1. O=C1Nc2ccccc2C12CCNC2Cc1ccccc1 (stereo not given)
2. CCOC(=O)C1=C(c2ccccc2)NC(c2ccccc2)=C(C(=O)OCC)c2c1c(=O)cc[nH]c2=O

Response:
[-17.2, -19.6]

State the recorded growth inhibition for every item in the following list.
1. C=C(C)COc1ccc(C)cc1Br
2. CCCS(=O)(=O)N1CCC(C)CC1
3. CC1(C)CC(C(N)=O)C(C)(C)N1O (stereo not given)
4. COc1ccc(C(=Nc2ccc(C)cc2)c2ccccc2)cc1
5. N#CC1OC1c1ccccn1 (stereo not given)

Response:
1: -4.05; 2: 5.7; 3: 13; 4: -2.1; 5: -6.25

State the recorded growth inhibition for every item in the following list.
1. Cc1cc(N)c(N=Cc2ccccc2[N+](=O)[O-])cc1C
2. C=CCNC(=S)/N=C/c1c(O)c2ccccc2oc1=O
3. CCOC(=O)c1[nH]c(C)c(C(=O)OC(C)(C)C)c1C

Response:
[26.2, -33.5, 4.55]

State the recorded growth inhibition for every item in the following list.
1. CCCC(CCC)C(=O)OCC(=O)c1ccc(-c2ccccc2)cc1
2. N#CC1(c2ccccc2)OC1(C#N)c1ccccc1 (stereo not given)
3. S=c1nc[nH]c2c1CNC2
4. CCCOC(=O)O[C@H]1CC[C@@]2(C)C(=CC[C@H]3[C@@H]4CC[C@H]([C@H](C)CCCC(C)C)[C@@]4(C)CC[C@@H]32)C1
5. Oc1ccc(Cl)cc1CC(=S)N1CCOCC1
6. N#C/C(=C/c1ccc[nH]1)C(=O)O
7. C[n+]1cccc(/C=C/c2ccc3cccc(O)c3n2)c1
8. Cc1cc(O)c(/C=N/C(=O)NN)c(=O)o1

Response:
1: -1.4; 2: 3.1; 3: -8.2; 4: -34.6; 5: 11.1; 6: -11.6; 7: 4; 8: -40.6

State the recorded growth inhibition for every item in the following list.
1. CCCNCC(O)COc1ccc2c3c(c(=O)oc2c1)CCC3 (stereo not given)
2. O=c1cc(N2CCOCC2)n2c(ccc3ccccc32)n1

Response:
1.15
-17.9

====

# experimentDescription: NCI Yeast Anticancer Drug Screen. Data for the rad50 strain (AID 155);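 note: 0% = growth of vehicle-only cultures of the same strain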
# cond: S. cerevisiae rad50 strain growth inhibition; at 50.0 µM; hits give high values
About 79,000 compounds went through this panel and 15% of them were active in at least one assay; those are over-represented in the sample as a whole.
Quick rule for you: growth inhibition at 10% or higher means Met, lower means Not met.

// below: answered compounds
Request: # bool: growth inhibition of OC1CCC2CCCCC2C1 (centres undefined) >= 10%
Response: Not met

Request: # bool: growth inhibition of CC12CCC3=C(CCc4cc(O)ccc43)C1CCC2=O (centres undefined) >= 10%
Response: Not met

Request: # bool: growth inhibition of CN(C)[C@@H]1C(=O)C(C(=O)NCNc2cccc(C(=O)O)c2C(=O)O)=C(O)[C@@]2(O)C(=O)C3=C(O)c4c(O)cccc4[C@@](C)(O)[C@H]3C[C@@H]12 >= 10%
Response: Not met

Request: # bool: growth inhibition of Cc1ccc(S(=O)(=O)/N=C/C=P(c2ccccc2)(c2ccccc2)c2ccccc2)cc1 >= 10%
Response: Met

Request: # bool: growth inhibition of COC(=O)c1c(-c2ccccc2)cn(C)c1C >= 10%
Response: Met

Others:
Request: # bool: growth inhibition of OCCCCCCN=Cc1ccccc1O.OCCCCCCN=Cc1ccccc1O.[Cu] >= 10%
Response: Met

Request: # bool: growth inhibition of COc1cc(/C=C/C(=O)OCC23CC[C@@]4(C(=O)O)CCC(C)[C@H](C)C4C2=CCC2[C@@]4(C)CC[C@H](O)C(C)(C)C4CC[C@]23C)ccc1O (some centres undefined) >= 10%
Response: Met

Request: # bool: growth inhibition of C(=N\N1CCN(/N=C/c2c[nH]c3ccccc23)CC1)/c1c[nH]c2ccccc12 >= 10%
Response: Met

====

# experimentDescription: NCI Yeast Anticancer Drug Screen. Data for the bub3 strain (AID 167)
# cond: S. cerevisiae bub3 mutant strain, at 50.0 µM, hits give high values
About 79,000 compounds went through this panel and 15% of them were active in at least one assay; those are over-represented in the sample as a whole. Where a SMILES comes first, the peptide text is derived from it. The star is where a group is joined. Cbz = O=C(OCc1ccccc1)*
assayReadout: growth inhibition (%)
Give bare numbers, in %.

Request: Quick check: growth inhibition of Cc1[nH]c2ccccc2c1C(c1ccccc1O)c1c(C)[nH]c2ccccc12 ?
Response: 13.2

Request: Quick check: growth inhibition of Oc1c(CN2CCN(c3ccccc3)CC2)cc(Br)c2cccnc12 ?
Response: 9.4

State the recorded growth inhibition for every item in the following list.
1. CCN(CC)Cc1cc(Nc2cc(C)nc(/N=C(\N)Nc3cc(Cl)cc(Cl)c3)n2)ccc1O
2. CC(=O)OC1CCC(C(C)C)CC1 (configuration not stated)
3. Cn1cnc2ncnc(Oc3ccc(Cl)cc3)c21
4. CC(=O)Nc1ccc2c(c1)Cc1cc(NC(C)=O)c(Cl)cc1-2
5. CCCCCCCC(=O)NNCc1ccccc1
6. Cc1ccc(/C=C/C(=O)/C=C/c2ccc(C)cc2)cc1

Response:
7.95
1.15
-27.1
-2.35
15.9
23.6

State the recorded growth inhibition for every item in the following list.
1. COc1ccc2ccccc2c1C1/C(=N/O)CCc2ccccc21 (configuration not stated)
2. Cc1ccc2nc(-c3ccc4nc(-c5ccc(N=Nc6ccc(-c7nc8ccc(-c9nc%10ccc(C)c(S(=O)(=O)O)c%10s9)cc8s7)cc6)cc5)sc4c3)sc2c1S(=O)(=O)O

Response:
1. 10.6
2. -3.2

State the recorded growth inhibition for every item in the following list.
1. CC(=O)Nc1cc(C)c(C(=O)O)c(C)c1
2. CCOC(=O)C1Oc2ccccc2OC1C (configuration not stated)
3. O=C(N/N=C/c1ccccc1)c1c(-c2cccnc2)cnc2ccccc12
4. Oc1c2c(c3cccc4cccc1c43)=Nc1ccccc1S2
5. CC(=O)NCCc1nc(-c2nc(C(=O)NCCC(C)C)cs2)cs1
6. O=C(NC(Cc1ccccc1)C(=O)N1CCCC1C(=O)O)OCc1ccccc1 (stereo not drawn) (Cbz-Phe-Pro-OH; configuration not given here)
7. COC(=O)c1cc(Cl)ccc1NC(=O)C1CCCCC1

Response:
1: -24.9; 2: 16.3; 3: 12.3; 4: 3.3; 5: 6.8; 6: -1.75; 7: 15.2

State the recorded growth inhibition for every item in the following list.
1. CCCCCCCCCCCC(=O)N/N=C(\c1ccccc1)c1ccc(Cl)cc1
2. S=C(Nc1ccccc1)Nc1nc(-c2ccccc2)c(N=Nc2ccc(Cl)cc2)s1
3. CCNC1=C(OC)C(=O)C(NCC)=C(OC)C1=O
4. CN1C(=O)CC(c2cccc(C3CC(=O)N(C)C3=O)n2)C1=O (configuration not stated)
5. CC[N+]1(C)CCC(CN2c3ccccc3Sc3ccccc32)C1 (configuration not stated)

Response:
1. 76.5
2. -0.85
3. 5.3
4. -11.7
5. 6

====

# experimentDescription: NCI Yeast Anticancer Drug Screen. Data for the mlh1 rad18 strain (AID 175)
# cond: S. cerevisiae mlh1 rad18 strain growth inhibition; at 50.0 µM; hits give high values
Compounds without any hit were thinned out: in the full panel of roughly 79,000, 15% have a hit. Active and inactive are the calls of the source. No stated cut-off is given here; in the data, active means growth inhibition above about 70%; inactive means the rest.
assayReadout: growth inhibition

Request: Quick check: growth inhibition of Cc1cc2ccccc2c[n+]1CC(O)CBr (centres undefined) ?
Response: 5.9% (inactive)

State the recorded growth inhibition for every item in the following list.
1. COc1ccc2cc3n(c2c1)CCc1cc(OC)c(OC)cc1-3
2. O=S(=O)(NO)c1ccc(Cl)cc1
3. Fc1c(F)c(F)c(CCc2c(F)c(F)c(F)c(F)c2F)c(F)c1F

Response:
1: 14.2% (inactive); 2: 3.2% (inactive); 3: 19.2% (inactive)
